system: HepaRG; assay: LDH release cytotoxicity, % of total lysis control; higher = more cytotoxic; conditions: 1 µM; 48 h
Counter-ions that a name gives are not always drawn.
Could you please report measured LDH release cytotoxicity for the items listed next?
Answer format: numeric, % implied, no suffix.

The molecule listed as CC(C)COC(=O)c1ccccc1C(=O)OCC(C)C [Diisobutyl phthalate] shows LDH release cytotoxicity equal to -2.06

The measured LDH release cytotoxicity associated with CN(C)C=O [N,N-Dimethylformamide] reads -2.12

Sample CN(C)CCCN1c2ccccc2Sc2ccc(Cl)cc21 [Chlorpromazine hydrochloride] ; LDH release cytotoxicity observed: -2.9

Lab book: LDH release cytotoxicity of CCOc1ccc2c(n1)C(=O)C(C(=O)NCc1ccccc1)C=N2 (stereo not given) noted as -1.34

Entry CCc1ccc(C(=O)NN(C(=O)c2cc(C)cc(C)c2)C(C)(C)C)cc1 [Tebufenozide] — recorded LDH release cytotoxicity = -0.0494

Measured LDH release cytotoxicity, COc1cc(-c2ccc(N)c(OC)c2)ccc1N [3,3'-Dimethoxybenzidine dihydrochloride] : -2.08

Reported LDH release cytotoxicity of C=C(C)C(N)=O [Methacrylamide] : -1.09

According to the records, this molecule "Nc1ccc2c(c1)C(=O)c1ccccc1C2=O" displays LDH release cytotoxicity of -1.44

LDH release cytotoxicity measured on "Cc1cc(Cc2ccc(N)c(C)c2)ccc1N" = -1.39

Just so you know, measured LDH release cytotoxicity for CCCCC(O)(Cn1cncn1)c1ccc(Cl)cc1Cl (stereo not given) came out at -0.913

Recorded result, "CCCCCCCCCCCCCCCCCC(=O)O" , LDH release cytotoxicity: -1.46

Entry "OCCCl" ; LDH release cytotoxicity = -1.39

Measured LDH release cytotoxicity of "CCCCCCCCCC" : -2.73

# molecule OC(c1ccc(Cl)cc1)(c1cncnc1)c1ccccc1Cl (stereo not given) ; its LDH release cytotoxicity = -2.32

Record summary for "NC(=O)c1nc(-c2cccc(-c3cc(F)ccc3OCC(F)(F)C(F)(F)F)c2)n[nH]1" : reported LDH release cytotoxicity = -1.07

The recorded LDH release cytotoxicity for entry "CC(C)(O)c1coc(S(=O)(=O)NC(=O)Nc2c3c(cc4c2CCC4)CCC3)c1" equals 0.236

Per the records, this molecule ( "CC(C)c1cccc(C(C)C)c1NC(=O)NS(=O)(=O)c1cc(C(C)(C)O)co1" ) has LDH release cytotoxicity equal to -1.57

In plain terms, "CC(C)(C)CC(C)(C)c1ccc(O)c(-n2nc3ccccc3n2)c1" has a documented LDH release cytotoxicity of -3.09

// LDH release cytotoxicity lookup, molecule = [OH-].c1cc[c]([Sn+]([c]2ccccc2)[c]2ccccc2)cc1 [Triphenyltin hydroxide] , result: 46.3

Briefly, LDH release cytotoxicity measured for CC(=O)C(C)=CC1C(C)=CCCC1(C)C (stereo not given) : -1.69

----------
system: HepaRG; experiment: LDH release cytotoxicity, % of total lysis control; higher = more cytotoxic; conditions: 0.03162 µM; 48 h
Where a name gives a salt, the structure may show the parent alone.
readout name: LDH release cytotoxicity (%)
Please respond with the number in % and leave the unit unwritten.

With HepaRG as the test system, O=S(=O)(O)C(F)(F)C(F)(F)C(F)(F)C(F)(F)C(F)(F)C(F)(F)F [Potassium perfluorohexanesulfonate] showed LDH release cytotoxicity of -0.914

Field LDH release cytotoxicity (HepaRG), entry "c1ccc2c(c1)-c1cccc3cccc-2c13" : -1.36

So the reported LDH release cytotoxicity for "Nc1cc(Cl)cc(C(=O)O)c1Cl" , on HepaRG, turned out to be 0.283

Tested system HepaRG; LDH release cytotoxicity recorded for "O=C1CCC(C2CCCCC2)CC1" was -0.737

Tested on HepaRG: "CCCCCCCCCCCCCO" . Observed LDH release cytotoxicity: -1.51

Measured LDH release cytotoxicity (HepaRG), entry O=[N+]([O-])c1ccc(O)cc1 [Sodium 4-nitrophenolate] : -0.704

Summary: "CCOC(=O)c1ccc(O)cc1" , HepaRG, LDH release cytotoxicity = -0.474

The value of LDH release cytotoxicity recorded for NCCOCCOCCN [2,2'-[Ethane-1,2-diylbis(oxy)]diethanamine] when tested on HepaRG reads -0.945

Short answer on HepaRG for "CCCCN(CCCC)SN(C)C(=O)Oc1cccc2c1OC(C)(C)C2" , LDH release cytotoxicity: -3.56

With HepaRG as the test system, "O=C(O)C(F)(F)C(F)(F)C(F)(F)C(F)(F)C(F)(F)C(F)(F)C(F)(F)F" showed LDH release cytotoxicity of -0.867

Tested on HepaRG: "CC(C)(C)c1cc(O)c(C(C)(C)C)cc1O" . Observed LDH release cytotoxicity: -1.42

Kindly note: HepaRG, COC(=O)c1ccccc1N [Methyl 2-aminobenzoate] , LDH release cytotoxicity value reported: -1.17

Record CN(C)C=O [N,N-Dimethylformamide] ; system HepaRG; LDH release cytotoxicity = -0.983

Measured LDH release cytotoxicity for this entry "O=C(O)c1cccc(N(Cc2cccnc2)c2ccc(OC(F)F)c(OC(F)F)c2)c1" on HepaRG: -1.28

Readout LDH release cytotoxicity for "OCCC(F)(F)C(F)(F)C(F)(F)C(F)(F)C(F)(F)C(F)(F)F" , test system HepaRG, was -0.419

Kindly note: HepaRG, OCC(CO)(CBr)CBr [Pentaerythritol dibromide] , LDH release cytotoxicity value reported: -0.95

Record "CN1CCCC1=O" has HepaRG LDH release cytotoxicity equal to -2.92

Result for "Cc1ccccc1Cl" , tested on HepaRG, LDH release cytotoxicity: -1.99

Measured LDH release cytotoxicity (HepaRG), entry CCSC(=O)N(CC(C)C)CC(C)C [Butylate] : -1.39

Entry "O=Cc1ccccc1C=O" , HepaRG data, LDH release cytotoxicity value: -1.01

Bench note, HepaRG: "Cc1cc(Cl)ccc1OCC(=O)O" , LDH release cytotoxicity reads -0.121

Considering CCCCCCOC(=O)CC(CC(=O)OCCCCCC)(OC(=O)CCC)C(=O)OCCCCCC [Butyryl-n-trihexylcitrate] , its LDH release cytotoxicity with HepaRG was recorded as -0.556

LDH release cytotoxicity of OC1CCC(C2CCCCC2)CC1 (configuration not stated) , assay on HepaRG, is -1.67

Record O=c1ccc(=O)[nH][nH]1 [Maleic hydrazide] has HepaRG LDH release cytotoxicity equal to -0.979

Field LDH release cytotoxicity (HepaRG), entry "CCC(C)(C)C(=O)OC1=C(c2ccc(Cl)cc2Cl)C(=O)OC12CCCCC2" : -0.904

With HepaRG as the test system, "O=C(O)c1nc(Cl)ccc1Cl" showed LDH release cytotoxicity of -1.75

HepaRG data for COc1cccc(C(=O)NN(C(=O)c2cc(C)cc(C)c2)C(C)(C)C)c1C [Methoxyfenozide] ; its LDH release cytotoxicity: -1.25

Note to self: LDH release cytotoxicity of NS(=O)(=O)c1cc2c(cc1Cl)NCNS2(=O)=O [Hydrochlorothiazide] with HepaRG was -0.499

Field LDH release cytotoxicity (system: HepaRG) for entry c1ccc(C2CO2)cc1 (configuration not stated) [Styrene oxide] = -1.36

The observed LDH release cytotoxicity for "CCCCCCCCCCCCCCCCCC(=O)O" when tested with HepaRG stands at -0.507

Note to self: LDH release cytotoxicity of "CON(C)C(=O)Nc1ccc(Cl)c(Cl)c1" with HepaRG was -1.04

Reported LDH release cytotoxicity (HepaRG) for entry "Clc1cccc(Cl)c1" is -0.441

LDH release cytotoxicity for HepaRG with input CCOS(=O)(=O)OCC [Diethyl sulfate] equals -1.93

So the reported LDH release cytotoxicity for CC(C)=CCCC(C)CCO (configuration not stated) , on HepaRG, turned out to be -1.93

Result for CCOP(=S)(OCC)SCSCC [Phorate] , tested on HepaRG, LDH release cytotoxicity: -1.85

HepaRG LDH release cytotoxicity of "CCn1nc(C)c2c1C(=O)NCC(c1ccc(O)cc1)=N2" is -0.976

CC1CN(N=Cc2cccnc2)C(=O)N=N1 (configuration not stated) tested on HepaRG gave LDH release cytotoxicity: 4.48

// returns LDH release cytotoxicity for "COC(=O)NS(=O)(=O)c1ccc(N)cc1" with HepaRG; value = -0.269

LDH release cytotoxicity of "CSC(C)=NOC(=O)N(C)SN(C)C(=O)ON=C(C)SC" , assay on HepaRG, is 0.264

Record "CC(C)(c1ccc(O)cc1)c1ccc(O)cc1" has HepaRG LDH release cytotoxicity equal to -1.32

"Cc1cc(C)nc(Nc2ccccc2)n1" tested on HepaRG gave LDH release cytotoxicity: -0.263

Tested system HepaRG; LDH release cytotoxicity recorded for CC(=O)OCCOCCOCCOC(C)=O [Triethylene glycol diacetate] was -2

FYI, the data here is from the supplement of paper PMC7840683.
